Assay: Toxicity liver stage against HepG2, at 10uM
Type: cell-based
Parameters: test concentration 10 uM, cell line HepG2-A16-CD81EGFP
Settings: human, HepG2-A16-CD81EGFP cells; read-out: INHIBITION
Each item that follows carries a reported cytotoxicity at 10 µM.
# unit: % | format: bare number

Past entries and their recorded results:
O=C1COc2cc(C(=O)N3CCCC(n4cccn4)C3)ccc2N1 (stereo unspecified): -22.6
CN1CCN2CCN(C(=O)c3cnn4cc(CCO)cnc34)CC2C1 (stereo unspecified): 7.04
COCC(=O)N1CCN(Cc2coc(-c3cccc(F)c3)n2)CC1: -7.16
CCn1ccnc1CNCC1CCCN1c1cc(NC)ncn1 (stereo unspecified): 3.37
CN1CCC2(CC1)CN(C)C(=O)C[C@@H]2C(F)(F)F: -144
Cc1cccc(-n2cnnc2CCCN2CCOCC2)c1: -2.42

Exercise: Please give measured cytotoxicity at 10 µM of the following entry: CCCn1nc2c(cc1=O)CN(c1ncnc3sccc13)CC2
Key: 49.4

Exercise: Please give measured cytotoxicity at 10 µM of the following entry: CSCC[C@@H](CO)NC(=O)c1sc(-c2ccc(Cl)cc2)nc1C
Key: 6.45

Exercise: Please give measured cytotoxicity at 10 µM of the following entry: CS(=O)(=O)NCCNC(=O)NC1(c2ccc(Cl)cc2)CCC1
Key: -2.48

Exercise: Please give measured cytotoxicity at 10 µM of the following entry: CC(NC(=O)c1ccc(C(N)=O)cc1)c1cccc(N2CCOC2=O)c1 (stereo unspecified)
Key: -2.83

Exercise: Please give measured cytotoxicity at 10 µM of the following entry: CNS(=O)(=O)c1cc(C(=O)N(C)Cc2sccc2C)c(C)o1
Key: -8.43

Exercise: Please give measured cytotoxicity at 10 µM of the following entry: Fc1ccc2c(c1)C1(CCNCC1)CC2NC1CC1 (stereo unspecified)
Key: -117

Exercise: Please give measured cytotoxicity at 10 µM of the following entry: COCc1nc(C(=O)NS(=O)(=O)c2cc(Br)ccc2C)cs1
Key: -1.66

Exercise: Please give measured cytotoxicity at 10 µM of the following entry: CC(Cn1cccn1)NC(=O)CCc1ccc(S(N)(=O)=O)cc1 (stereo unspecified)
Key: -2.02

Exercise: Please give measured cytotoxicity at 10 µM of the following entry: CN(CCOc1cccc(S(C)(=O)=O)c1)CC(F)F
Key: 13

Exercise: Please give measured cytotoxicity at 10 µM of the following entry: COc1ccc(C2CC(=O)c3c(O)cc(O)cc3O2)cc1O (stereo unspecified)
Key: -2.66

Exercise: Please give measured cytotoxicity at 10 µM of the following entry: CCOc1ccc(NC2CCN(C3CC3)C2=O)cn1 (stereo unspecified)
Key: -0.387

Exercise: Please give measured cytotoxicity at 10 µM of the following entry: CN(CCN1CCOCC1)C(=O)CCCOCCc1ccccc1
Key: -1.28

Exercise: Please give measured cytotoxicity at 10 µM of the following entry: CCC(=O)NCC1(O)CCC(C(C)(C)C)CC1 (stereo unspecified)
Key: 5.81

Exercise: Please give measured cytotoxicity at 10 µM of the following entry: CCOCC1CN(C(=O)C2CCOCC2)Cc2cnn(C)c21 (stereo unspecified)
Key: -1.05

Exercise: Please give measured cytotoxicity at 10 µM of the following entry: Cc1cc(C)c(C(=O)N(C)CCN(C)C(=O)c2[nH]c(C)cc2C)[nH]1
Key: -1.91
